Known Encapsulation efficiency of a selection of molecules
Test: Liposome encapsulation test, remote loading method (Experimental Example 4);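 note: encapsulated compound as percent of compound amount introduced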
Assay type: physicochemical
Conditions: Compound concentration when encapsulated 10 mg/mL
Give the value in % but do not write % after it.

Would you please look over these solved cases?
CN1CC[C@H](c2c(OC(=O)N(CCF)CC3CCCCN3)cc(O)c3c(=O)cc(-c4ccccc4Cl)oc23)[C@H](O)C1 (stereo partly drawn) = 46.1
CCCN(C[C@@H]1CCCCN1)C(=O)Oc1cc(O)c2c(=O)cc(-c3ccccc3Cl)oc2c1[C@H]1CCN(C)C[C@H]1O = 71.6

The record that follows has no Encapsulation efficiency shown yet.
The reported Encapsulation efficiency of the molecule CCN(C[C@@H]1CCCCN1)C(=O)Oc1cc(O)c2c(=O)cc(-c3ccccc3Cl)oc2c1[C@H]1CCN(C)C[C@H]1O [Example 1, ditrifluoroacetate] was 73.2

###

In this section we review reported Production rate of Alvocidib values for a set of compounds.
Assay: Evaluation of conversion rate to active form in buffer solution (Experimental Example 1)
Assay type: physicochemical
Conditions: pH7.4, 1 hr, 37° C., 25 umol/L in buffer solution
The response must be a number in % with no trailing unit.

// known answers, use as guide
CCCN(C[C@@H]1CCCCN1)C(=O)Oc1cc(O)c2c(=O)cc(-c3ccccc3Cl)oc2c1[C@H]1CCN(C)C[C@H]1O [Example 5] = 69.8
CN1CC[C@H](c2c(OC(=O)N(C)C[C@@H]3CCCCN3)cc(O)c3c(=O)cc(-c4ccccc4Cl)oc23)[C@H](O)C1 [Example 3] = 67.8
CCN(C[C@@H]1CCCCN1)C(=O)Oc1cc(O)c2c(=O)cc(-c3ccccc3Cl)oc2c1[C@H]1CCN(C)C[C@H]1O [Example 1, ditrifluoroacetate] = 69.3

Entry CN1CC[C@H](c2c(OC(=O)N(Cc3ccccc3)CC3CCCCN3)cc(O)c3c(=O)cc(-c4ccccc4Cl)oc23)[C@H](O)C1 (stereo partly shown) [Example 15] — recorded Production rate of Alvocidib = 67.3

###

Known Residual rate of a selection of compounds
Assay: Evaluation of conversion rate to active form in buffer solution (Experimental Example 1)
Assay type: physicochemical
Details: pH7.4, 2 hr
Param answer (str): number followed by unit.

CCC(=O)O[C@@H]1CN(C)CC[C@@H]1c1c(O)cc(O)c2c(=O)cc(-c3ccccc3Cl)oc12 = 94.9%
CNC(=O)O[C@@H]1CN(C)CC[C@@H]1c1c(O)cc(O)c2c(=O)cc(-c3ccccc3Cl)oc12 [Comparative Example 5, reference compound] = 93.4%

Record CN1CC[C@H](c2c(O)cc(O)c3c(=O)cc(-c4ccccc4Cl)oc23)[C@H](OC(=O)c2ccccc2F)C1 , field Residual rate: 97.6%

The recorded Residual rate for entry CN1CC[C@H](c2c(OC(=O)N(C)CCN)cc(O)c3c(=O)cc(-c4ccccc4Cl)oc23)[C@H](O)C1 [Comparative Example 13, reference compound] equals 0.0%

###

Assay: Evaluation of conversion rate to active form in buffer solution (Experimental Example 1)
Assay type: physicochemical
Details: pH5.0, 3 hr, 37° C., 25 umol/L in buffer solution
Structures can show the parent of a compound that is named as a salt.
Measured Residual rate by item

Here's what some known entries look like.
CN1CC[C@H](c2c(OC(=O)N(CCF)CC3CCCCN3)cc(O)c3c(=O)cc(-c4ccccc4Cl)oc23)[C@H](O)C1 (stereo partly drawn) [Example 11] = 79.1%
CCN(CCC1CCCCN1)C(=O)Oc1cc(O)c2c(=O)cc(-c3ccccc3Cl)oc2c1[C@H]1CCN(C)C[C@H]1O (stereo partly drawn) [Example 16] = 86.1%
COCCN(CC1CCCCN1)C(=O)Oc1cc(O)c2c(=O)cc(-c3ccccc3Cl)oc2c1[C@H]1CCN(C)C[C@H]1O (stereo partly drawn) [Example 12] = 77.3%
CCN(C[C@H]1CCCCN1)C(=O)Oc1cc(O)c2c(=O)cc(-c3ccccc3Cl)oc2c1[C@H]1CCN(C)C[C@H]1O [Example 2] = 94.1%
CN1CC[C@H](c2c(OC(=O)N(CCC(F)(F)F)CC3CCCCN3)cc(O)c3c(=O)cc(-c4ccccc4Cl)oc23)[C@H](O)C1 (stereo partly drawn) [Example 13] = 76.1%

Now let's try a different one.
// field: Residual rate; key: CCN(CC1CCCCN1)C(=O)Oc1cc(O)c2c(=O)cc(-c3ccccc3Cl)oc2c1[C@H]1CCN(C)C[C@H]1O (stereo partly drawn) [Example 7, dihydrochloride] ; value = 97.7%
